tested on: Human immunodeficiency virus 1; test: Antiviral activity against HIV1 LAI infected in human MT2 cells assessed as reduction in p24 Gag protein production incubated for 6 days by automated chemiluminescent enzyme immunoassay; assay type: functional, cell-based; details: Human immunodeficiency virus 1, LAI, MT2, 144 h
readoutType: IC50 (nM)

Some molecules with recorded IC50:
COc1ccc(S(=O)(=O)N(CC(C)C)C[C@@H](O)[C@H](Cc2ccccc2)NC(=O)c2cccc(C(=O)N3CC[C@@H](c4nc(C)cs4)C3)c2)cc1    280
Cc1csc([C@H]2CCCN2C(=O)c2cccc(C(=O)N[C@@H](Cc3ccccc3)[C@H](O)CN(CC(C)C)S(=O)(=O)c3ccc(CO)cc3)c2)n1    164
COc1ccc(S(=O)(=O)N(CC(C)C)C[C@@H](O)[C@H](Cc2ccccc2)NC(=O)c2cccc(C(=O)N3CSC[C@@H]3c3nc(C)cs3)c2)cc1    32

P. COc1ccc(S(=O)(=O)N(CC(C)C)C[C@@H](O)[C@H](Cc2ccccc2)NC(=O)c2cccc(C(=O)N3CCCC[C@@H]3c3nc(C)cs3)c2)cc1
Q. COCc1coc([C@H]2CCCN2C(=O)c2cccc(C(=O)N[C@@H](Cc3ccccc3)[C@H](O)CN(CC(C)C)S(=O)(=O)c3ccc(OC)cc3)c2)n1
Inquiry: Kindly compare P with Q and tell me which has the lower IC50 figure. Select an item and report its label.
Reply text: P
